The measurements presented in this section are drawn from paper PMC6874179.

EXPERIMENTAL_SYSTEM: ALK4 (Homo sapiens)
Construct: T7 phage fusion (or DNA tag for qPCR if made in HEK-293); purchased DiscoverX; host or cells: E. coli (T7 phage) or HEK-293
Sequence (P36896 24-505): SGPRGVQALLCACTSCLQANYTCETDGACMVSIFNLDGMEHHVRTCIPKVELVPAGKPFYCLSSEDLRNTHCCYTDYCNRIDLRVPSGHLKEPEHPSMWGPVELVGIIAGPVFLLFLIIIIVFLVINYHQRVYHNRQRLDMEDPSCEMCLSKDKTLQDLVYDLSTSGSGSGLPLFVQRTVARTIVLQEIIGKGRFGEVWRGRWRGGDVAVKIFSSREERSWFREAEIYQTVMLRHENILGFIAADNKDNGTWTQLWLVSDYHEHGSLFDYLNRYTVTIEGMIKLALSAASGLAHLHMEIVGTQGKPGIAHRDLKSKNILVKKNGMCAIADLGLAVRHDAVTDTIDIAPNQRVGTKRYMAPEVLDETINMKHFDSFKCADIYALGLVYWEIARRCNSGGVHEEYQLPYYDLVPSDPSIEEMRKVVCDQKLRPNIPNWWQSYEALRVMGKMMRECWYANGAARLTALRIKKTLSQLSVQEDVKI
METHOD_DESCRIPTION: DiscoverX Kd determination
Type: binding
MEASURED_QUANTITY: Kd

[
  {
    "COMPOUND": "Clc1cc2cc(c1)-c1cnn3ccc(nc13)NCCOCCO2 [OD36]",
    "REPORTED_RESULT": "3000 nM"
  },
  {
    "COMPOUND": "Cc1cc2cc(c1)-c1cnn3ccc(nc13)NCCNC(=O)CCN(C)C2 [OD52]",
    "REPORTED_RESULT": "260 nM"
  }
]

* * *

METHOD_DESCRIPTION: Solubility determination
Type: physicochemical
CONDITION_SUMMARY: PBS buffer, aqueous buffer, kinetic from dmso stock; 50 mM PBS pH 7.4, 5% DMSO, 2-hour equilibrium, room temperature; read-out: Solubility in µM PBS
Protocol: Test compound from 5 mM DMSO stock solution were diluted to 250 µM either in 50 mM PBS pH 7.4 or FaSSIF pH 6.5 in triplicate. DMSO final concentration was 5%. After a 2-hour equilibrium at room temperature and under shaking, samples were centrifuged at 3000g for 10 min at room temperature. A calibration curve was prepared in LC mobile phase from the 5 mM DMSO stock solution. Samples and calibration curve were analyzed by LC with UV detection.
Catalogue of solubility at 2 h readings, one per entry.
MEASURED_QUANTITY: solubility at 2 h (µM)

[
  {
    "COMPOUND": "Cc1cc2cc(c1)-c1cnn3ccc(nc13)NCCNC(=O)CCN(C)C2",
    "MEASURED_QUANTITY": "solubility at 2 h",
    "REPORTED_RESULT": 140
  },
  {
    "COMPOUND": "Clc1cc2cc(c1)-c1cnn3ccc(nc13)NCCOCCO2",
    "MEASURED_QUANTITY": "solubility at 2 h",
    "REPORTED_RESULT": 2
  },
  {
    "COMPOUND": "c1ccc2c(-c3cnn4cc(-c5ccc(N6CCNCC6)cc5)cnc34)ccnc2c1 [LDN-193189, reference compound]",
    "MEASURED_QUANTITY": "solubility at 2 h",
    "REPORTED_RESULT": 5
  }
]

* * *

EXPERIMENTAL_SYSTEM: ACVR2A (Homo sapiens, UniProt P27037)
Construct: T7 phage fusion (or DNA tag for qPCR if made in HEK-293); purchased DiscoverX; host or cells: E. coli (T7 phage) or HEK-293
Sequence (P27037 20-513): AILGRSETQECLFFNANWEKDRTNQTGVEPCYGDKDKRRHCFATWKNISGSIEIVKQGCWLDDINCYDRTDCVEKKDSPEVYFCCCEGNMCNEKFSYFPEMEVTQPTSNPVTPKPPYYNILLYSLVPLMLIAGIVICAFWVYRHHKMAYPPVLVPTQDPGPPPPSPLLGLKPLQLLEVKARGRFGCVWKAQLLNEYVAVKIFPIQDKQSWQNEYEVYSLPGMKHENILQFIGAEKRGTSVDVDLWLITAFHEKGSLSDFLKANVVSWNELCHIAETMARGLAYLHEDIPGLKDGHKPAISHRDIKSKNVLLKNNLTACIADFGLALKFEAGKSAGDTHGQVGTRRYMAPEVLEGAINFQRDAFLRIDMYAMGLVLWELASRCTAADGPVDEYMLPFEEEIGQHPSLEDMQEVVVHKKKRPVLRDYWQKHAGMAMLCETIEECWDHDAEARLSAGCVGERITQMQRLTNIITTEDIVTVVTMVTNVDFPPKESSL
METHOD_DESCRIPTION: DiscoverX Kd determination
Assay type: binding
Each record here notes measured Kd.

[
  {
    "COMPOUND": "c1ccc2c(-c3cnn4cc(-c5ccc(N6CCNCC6)cc5)cnc34)ccnc2c1 [LDN-193189, reference compound]",
    "Kd [nM]": 12
  },
  {
    "COMPOUND": "Cc1cc2cc(c1)-c1cnn3ccc(nc13)NCCNC(=O)CCN(C)C2 [OD52]",
    "Kd [nM]": 590
  },
  {
    "COMPOUND": "Clc1cc2cc(c1)-c1cnn3ccc(nc13)NCCOCCO2 [OD36]",
    "Kd [nM]": 3000
  }
]
